Molecular target: T1, CTLA-4-hFc (immunogen A; hFc-labeled CTLA-4 extracellular domain protein) (human, UniProt P16410 36-161)
T1 construct: range 36-161; Made in HEK293 cells, purified on protein A; also called CLTA-4-hFc; CTLA-4 protein; not shown: human IgG Fc fragment (hFc) of the pCpC vector
T1 sequence (looked up): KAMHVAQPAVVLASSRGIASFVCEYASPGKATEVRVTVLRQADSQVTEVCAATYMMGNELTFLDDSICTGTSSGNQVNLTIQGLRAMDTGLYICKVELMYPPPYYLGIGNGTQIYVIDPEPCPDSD
Assay: competition ELISA: CTLA-4-hFc coated, antibody titrated, blocked ligand biotin-labeled B7.1-hFc, HRP-avidin, A450, inhibition (%)
experimental-readout: IC50 (read off the curve)

Exercise: Given the binder 31C12F3 (chimeric antibody purified from hybridoma supernatant) (antibody, V domains shown, also called mAb010) VH: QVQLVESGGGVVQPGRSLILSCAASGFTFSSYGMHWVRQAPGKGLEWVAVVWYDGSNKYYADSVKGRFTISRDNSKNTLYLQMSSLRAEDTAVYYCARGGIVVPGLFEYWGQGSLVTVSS VL: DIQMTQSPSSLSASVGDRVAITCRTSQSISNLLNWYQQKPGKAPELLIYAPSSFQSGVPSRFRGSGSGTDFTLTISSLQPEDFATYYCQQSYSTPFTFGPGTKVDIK , what is its reported IC50 (read off the curve)?
Key: ~0.4 nM
